Could you please report measured TGI for the items listed next?
tested on: HCT-116 colon; assay: NCI tumour cell line growth inhibition, 48 h
Where a SMILES comes first, the peptide text is derived from it. [ ]: non-standard residue; d: D form. The star is where a group is joined. ξ: configuration not given here. NMeY = CN[C@@H](Cc1ccc(O)cc1)C(=O)O; Cbz = O=C(OCc1ccccc1)*; ξA = CC(N)C(=O)O

Q. Report TGI, nothing else, for this molecule: `CCCCC/C=C\C=C\CCCCCCCCC(=O)OC`
A. > 100 µM

Q. Identify the reported TGI for the following entry. `O=c1[nH]c(=O)n([C@H]2C[C@@H](CO)[C@@H](O)C2)cc1I`
A. > 100 µM

Q. Supply TGI value. Item: `Cc1cc(O)ccc1C1(c2ccc(O)cc2C)OC(=O)c2ccccc21`
A. 33.7 µM

Q. Note down TGI recorded for `O=c1ccn(C/C=C/c2ccccc2)c(=S)n1C/C=C/c1ccccc1`
A. > 100 µM

Q. Read off the recorded TGI for `CCOC(=O)C#Cc1cccc(C#CC(=O)OCC)c1`
A. 7.1 µM

Q. Give TGI for the following molecule: `O=C(Nn1c(-c2ccccc2)nc2ccccc2c1=O)c1cccc([N+](=O)[O-])c1`
A. > 100 µM

Q. # return recorded TGI for input `COc1cc(-c2nc(N)c(C#N)c3c2CCS(=O)(=O)c2ccc(C)cc2-3)cc(OC)c1OC`
A. > 100 µM

Q. State its TGI: Cc1cc(C)c(NS(=O)c2ccc(Cl)cc2)c(C)c1 (stereo not drawn)
A. > 100 µM

Q. Complete the entry with TGI for `COc1ccccc1N1CCN(S(=O)(=O)c2ccc(Cl)cc2)C1=N`
A. > 100 µM

Q. Check the records and state TGI for CC1=C2CC[C@@]3(C)C(=CCC3O)C2(C)CCC1=O (stereo partly drawn)
A. > 100 µM

Q. Return the recorded TGI value; entry: CC1(C)CC(=O)c2c(-c3ccc(Cl)cc3)c(C#N)c(=S)n(C3OC(CO)C(O)C(O)C3O)c2C1 (stereo not drawn)
A. > 100 µM

Q. Please look at this molecule and report its TGI: C=C(C)COc1ccc2c(c1)CCC1C2CCC2(C)C(=O)/C(=N/O)CC12 (stereo not drawn)
A. 3.08 µM

Q. Tell me TGI reported for `COc1ccc(OC(=O)N2C/C(=C\c3ccccc3)C(=O)/C(=C/c3ccccc3)C2)cc1`
A. 1.19 µM

Q. Provide only the value of recorded TGI for CCn1c2ccccc2c2ccc(C3C4C(=O)N(c5cccc6ccccc56)C(=O)C4ON3C(C(N)=O)c3ccccc3)cc21 (stereo not drawn)
A. > 25 µM

Q. Supply TGI value. Item: N#CC1=C(N)N=C(N2CCOCC2)C(C#N)C12Nc1ccccc1S2 (stereo not drawn)
A. > 100 µM

Q. Look up TGI of C/C=C\C1OC1(C)c1cc(=O)c2c(C)cc3c(c2o1)C(=O)c1c(O)c(C2CC(C)(N(C)C)C(OC(C)=O)C(C)O2)cc(C2CC(N(C)C)C(O)C(C)O2)c1C3=O (stereo not drawn) and report it.
A. 0.0429 µM

Q. Tell me measured TGI for c1cc2c(cc1C1OCC3C(c4ccc5c(c4)OCO5)OCC13)OCO2 (stereo not drawn) please.
A. > 100 µM

Q. Answer with the recorded TGI of `CCOC(=O)/C(=C\c1c[nH]c2ccccc12)P(=O)(OCC)OCC` only.
A. > 100 µM

Q. Determine its reported TGI: `CC1(C)N=C(C(N)=O)c2ncn(Cc3ccccc3)c2N1`
A. > 100 µM

Q. Fill in reported TGI for this entry: `O=C(O)c1ccc(CSc2nc3ccccc3[nH]2)cc1`
A. > 100 µM

Q. Item `C=C1N(C)c2ccc(S(=O)(=O)c3ccc4c(c3)C(C)(C)C(=C)N4C)cc2C1(C)C` : provide TGI
A. > 100 µM

Q. Name the recorded TGI of the molecule listed here: `COc1ccc(C[C@H]2COC(=O)[C@@H]2Cc2ccc(Br)cc2)cc1OC`
A. > 89.7 µM

Q. Quickly give me recorded TGI for COc1ccc(C[C@@H](C(=O)N[C@@H](C)C(N)=O)N(C)C(=O)[C@@H]2CCCN2C(=O)[C@H](CC(C)C)NC(=O)C(C)NC(=O)OCc2ccccc2)cc1 (stereo partly drawn) (Cbz-[ξA]LP[NMeY](Me)A-NH2)
A. > 100 µM

Q. Return reported TGI. Input molecule: Cc1cn(C2CC(O)C(Cn3nncc3Cn3cnc4c(N)ncnc43)O2)c(=O)[nH]c1=O (stereo not drawn)
A. > 100 µM

Q. Provide one value: measured TGI of `Nc1c(S(=O)(=O)O)cc(S(=O)(=O)O)c2ccc(N=Nc3ccccc3)c(O)c12`
A. > 100 µM

Q. Give the value of TGI reported for the following: `O=C(c1ccccc1)c1ccc(N2C(=O)/C(=C/c3cccc(Oc4ccccc4)c3)N=C2c2ccccc2)c(N2C(=O)/C(=C/c3cccc(Oc4ccccc4)c3)N=C2c2ccccc2)c1`
A. > 100 µM

Q. Indicate the recorded TGI value for this molecule: COc1ccc(C2=C(c3ccccc3)C(=O)N3CCCC3C2)cc1 (stereo not drawn)
A. > 100 µM

Q. Give the measured TGI for C1=NN2C(c3ccccc3)=NOC2C2C(c3ccccc3)=NOC12 (stereo not drawn)
A. > 100 µM

Q. Identify measured TGI associated with OC1C2CCCCN2C[C@@H](O)[C@H]1O (stereo partly drawn)
A. > 100 µM

Q. Answer with the recorded TGI of `Cc1csc2nc(-c3cc([N+](=O)[O-])c(Cl)cc3Cl)c(/C=N/N=C(N)N)n12` only.
A. 39.5 µM

Q. Find the measured TGI of `O=c1[nH][nH]c(=O)n1Cc1ccccc1` and report it.
A. > 100 µM

Q. Recall and state the measured TGI for `COc1cccc(CCn2c(N)c(-c3cc(Cl)cc(Cl)c3)c3ccc([N+](=O)[O-])cc3c2=O)c1` .
A. 12.7 µM

Q. Fill in reported TGI for this entry: `COc1cc(-c2oc3c(OC)c(O)c(OC)c(O)c3c(=O)c2OC)cc(OC)c1OC`
A. > 100 µM
